PROTOCOL_DETAILS: NCI Yeast Anticancer Drug Screen. Data for the mlh1 rad18 strain (AID 175)
PARTICULARS: S. cerevisiae mlh1 rad18 strain growth inhibition, active compounds read high; at 50.0 µM unless noted
The panel holds about 79,000 compounds, 15% with a hit somewhere; the sample as a whole holds those more often. Active and inactive are the calls of the source. No stated cut-off is given here; in the data, active means growth inhibition above about 70%; inactive means the rest. Where a SMILES comes first, the peptide text is derived from it. [ ]: non-standard residue; d: D form. The star is where a group is joined. ξ: configuration not given here. ξF = NC(Cc1ccccc1)C(=O)O; Cbz = O=C(OCc1ccccc1)*; Aib = CC(C)(N)C(=O)O
Give growth inhibition for every item shown.

CC(=O)c1cc([N+](=O)[O-])ccc1OCC(=O)O	9.6% (inactive)
O=C(O)C1CC1c1ccc2c(c1)OCO2 (centres undefined)	1.35% (inactive)
O=c1[nH]c2cc(Cl)c([N+](=O)[O-])cc2o1	16.7% (inactive)
N#CC(C(=O)CCC(=O)C(C#N)c1ccccc1)c1ccccc1 (centres undefined)	-6.4% (inactive)
CC(C)CC(=O)/C=C\c1ccco1	-7.45% (inactive)

Would you mind listing growth inhibition for each of the following compounds?
1. COC(=O)C(C)(C)NC(=O)C(Cc1ccccc1)NC(=O)C(C)(C)NC(=O)OCc1ccccc1 (centres undefined) (Cbz-[Aib]-[ξF]-[Aib]-OMe)
2. C=C1C(=O)OC2C3[C@@]4(C)O[C@H]4[C@H]4O[C@@]34[C@](C)(O)CC(OC(C)=O)[C@@H]12 (some centres undefined)
3. CCOC(=O)CNC(=O)SCc1ccccc1
4. COc1cc(Nc2cnc3cc(C(F)(F)F)ccc3n2)cc(OC)c1OC
5. CCOC(=O)c1c[nH]n(-c2ccccc2)c1=O
6. O=C(O)CCc1cnc[nH]1
7. Cc1cccc(CO)c1NC(=O)NCCCl
8. COC(=O)C(CCCCCCCC(C(=O)OC)c1nc2n(c1O)C(=N)N=N2)c1nc2n(c1O)C(=N)N=N2 (centres undefined)

### Response
["-1.2% (inactive)", "-22.1% (inactive)", "1.45% (inactive)", "-1.55% (inactive)", "12.6% (inactive)", "2.3% (inactive)", "3.25% (inactive)", "4.75% (inactive)"]

Would you mind listing growth inhibition for each of the following compounds?
1. Cc1ccc(S(=O)(=O)NC(CCC(=O)N2CCOCC2)C(=O)O)cc1 (centres undefined)
2. COC1OC(CO)C(O)C1OS(C)(=O)=O (centres undefined)
3. CC(=O)[CH-]C(=O)c1ccccc1.CC(=O)[CH-]C(=O)c1ccccc1.CC1(C)OCC(C2OC3OC(C)(C)OC3C2[O-])O1.CC1(C)OCC(C2OC3OC(C)(C)OC3C2[O-])O1.[Ti+4] (centres undefined)
4. COc1ccc(C(=O)c2ccc(Br)s2)cc1
5. Cc1cc2cc3c(=O)[nH]c(=O)[nH]c3nc2cc1C

### Response
8.6% (inactive)
-8.3% (inactive)
20.2% (inactive)
33% (inactive)
-0.05% (inactive)

Would you mind listing growth inhibition for each of the following compounds?
1. O=CC(=O)C(O)C(O)C(O)CO (centres undefined)
2. CC(C)COC(=O)C(CC(C)C)NC(=O)C(C)O (centres undefined)
3. CCN1CCC(S(=O)(=O)CCS(=O)(=O)C2CCN(CC)C2)C1 (centres undefined)
4. Nc1ncc2c(n1)-c1ccccc1OC2
5. NNC(=O)Cc1ccc(Cl)c2ccccc12
6. COc1ccc(/C=C2\N=C(c3ccc([N+](=O)[O-])cc3)OC2=O)cc1OC
7. O=C(CCC1OCCO1)Nc1cc([N+](=O)[O-])ccc1OCc1ccccc1

### Response
19.4% (inactive)
6.6% (inactive)
2.05% (inactive)
-10.4% (inactive)
8.85% (inactive)
-17.1% (inactive)
7.6% (inactive)

Would you mind listing growth inhibition for each of the following compounds?
1. CC1C(=O)N(c2ccccc2)NC12CCCc1ccccc12 (centres undefined)
2. Nc1nnc2nc(CC(=O)c3ccc(Cl)c(Cl)c3)/c(=C/C(=O)c3ccc(Cl)c(Cl)c3)n12
3. O=C1c2cc(Cc3ccccc3)c(=O)c(Cc3ccccc3)cc2C(=O)c2cc(Cc3ccccc3)c(=O)c(Cc3ccccc3)cc21
4. CC(=C/c1ccccc1)/C=C1/NC(=S)NC1=O
5. COc1cc(C2c3cc4c(cc3OC(NN=C(C)C)C2C)OCO4)cc(OC)c1O (centres undefined)
6. Oc1cccc2c1CCCC2

### Response
27.6% (inactive)
-10.2% (inactive)
20.3% (inactive)
-21.4% (inactive)
10.9% (inactive)
-3.9% (inactive)

----------
PROTOCOL_DETAILS: NCI Yeast Anticancer Drug Screen. Data for the bub3 strain (AID 167)
PARTICULARS: S. cerevisiae bub3 mutant strain, active compounds read high; at 50.0 µM unless noted
Compounds without any hit were thinned out: in the full panel of roughly 79,000, 15% have a hit.
REPORTED_METRIC: growth inhibition (%)
Give bare numbers, in %.

Worked examples follow.
C=CC(C)(C)c1c(OC)cc(-c2ccccc2)oc1=O	20.6
O=C(Cc1ccc(CC(=O)NCCCCc2ccccc2)cc1)NCCCCc1ccccc1	-7.9
BrC(Br)(Br)Br	27.4
N#C/C(=C\c1ccccc1)c1ccc(F)cc1	32.5
FC(F)(F)COP1(OCC(F)(F)F)=NP(OCC(F)(F)F)(OCC(F)(F)F)=NP(OCC(F)(F)F)(OCC(F)(F)F)=N1	-3.45
CNNC(=O)C(O)C(C)(C)CO (stereo not given)	6.5
CC1=C(C(=O)Nc2ccccc2)C(c2ccc3c(c2)OCO3)C(C(=O)Nc2ccccc2)=C(C)N1	38.5
Cc1nccn1C(/C(=N/O)c1ccccc1)c1ccccc1 (stereo not given)	10.8
CCCCN(CCCC)C(=O)c1cccc(C)c1	53.2
CCC[C@@H]1C(=O)N=C(N)N1C(=O)OCc1ccccc1	-5.8

Would you mind listing growth inhibition for each of the following compounds?
1. CCC(=O)NC(Nc1ccccc1F)(C(F)(F)F)C(F)(F)F
2. CC(C)NCC(O)COc1cccc2[nH]c3ccccc3c12 (stereo not given)
3. CC12Nc3ccccc3N1C(=O)c1ccccc12 (stereo not given)
4. COc1ccc2[nH]c3c(=O)[nH]ncc3c2c1
5. [N-]=[N+]=Nc1c2c(nc3ccccc13)CCCC2

### Response
1. -41.9
2. -0.8
3. -1
4. 9.8
5. 0.3

----------
Give growth inhibition for every item shown.
PROTOCOL_DETAILS: NCI Yeast Anticancer Drug Screen. Data for the bub3 strain (AID 167)
PARTICULARS: S. cerevisiae bub3 mutant strain, active compounds read high; at 50.0 µM unless noted
This is part of a sample that, as a whole, favours compounds with a hit. Of some 79,000 tested, about 15% had one in any assay.
Answers are plain numbers, in %.

Oc1cc(O)c2c(c1)OC(c1ccc(O)c(O)c1)C(O)C2O (centres undefined)	21.2
C[N+]1(CCC(=O)c2ccccc2)CCOCC1	13.5
Cc1ccc(S(=O)(=O)OCCN(CCOS(=O)(=O)c2ccc(C)cc2)c2cccc([N+](=O)[O-])c2)cc1	-0.3

Would you mind listing growth inhibition for each of the following compounds?
1. COc1ccc(NS(=O)(=O)c2ccc(NC(CNC(C)S(=O)(=O)O)S(=O)(=O)O)cc2)cc1 (centres undefined)
2. CC1=Nc2ccccc2S/C1=C(/C)NNS(=O)(=O)c1ccc(C)cc1
3. COc1ccc(/C(Cc2ccccc2)=N/Nc2ccc([N+](=O)[O-])c([N+](=O)[O-])c2)cc1
4. Cc1ccc(C)n1-c1ccccc1
5. CC(C)CCNc1ccccc1

### Response
1: -0.85; 2: 7.75; 3: 9.7; 4: -8.2; 5: 3.55

Would you mind listing growth inhibition for each of the following compounds?
1. O=C(Nc1ccccn1)c1ccccc1Cl
2. COc1ccccc1/C=C1\SC(=S)NC1=O
3. COC(=O)c1[nH]c(=O)c2ccc([N+](=O)[O-])cc2c1O
4. O=C1CSC(c2ccccc2Cl)N1N1C(=O)CSC1c1ccccc1Cl (centres undefined)
5. NCCCc1nonc1C(=O)O

### Response
[-5.9, -17.8, -6.05, 24.3, -7.3]

Would you mind listing growth inhibition for each of the following compounds?
1. NC1CCC[C@@H](O)[C@H]1O (some centres undefined)
2. N#Cc1ccc(CC(=O)c2ccccc2)cc1

### Response
1. 9.6
2. -0.75

----------
PROTOCOL_DETAILS: NCI Yeast Anticancer Drug Screen. Data for the rad50 strain (AID 155);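 further: 0% = growth of vehicle-only cultures of the same strain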
PARTICULARS: S. cerevisiae rad50 strain growth inhibition, active compounds read high; at 50.0 µM unless noted
This is part of a sample that, as a whole, favours compounds with a hit. Of some 79,000 tested, about 15% had one in any assay.
Give growth inhibition for every item shown.
Give bare numbers, in %.

Worked examples follow.
Cn1c(-c2csc(-c3ccc(Cl)cc3)n2)n[nH]c1=S	5.65
CSCCSC	10.2
CC(=O)Nc1ccc(CCCc2ccc([N+](=O)[O-])cc2)cc1	3.15

Would you mind listing growth inhibition for each of the following molecules?
1. Nc1ncnc2c1ncn2C1OC(CO)C(NC(=O)C(N)Cc2ccccc2)C1O (stereo unspecified)
2. CCNc1cc(Cl)c(C(=O)O)cc1[N+](=O)[O-]
3. CC1CCCCN1Cc1ccccc1COC(=O)c1ccc([N+](=O)[O-])cc1Cl (stereo unspecified)
4. O=[N+]([O-])c1ccc(/C=N/Nc2nnc3c4ccccc4c4ncccc4c3n2)o1
5. COC1=CC(=O)C2CC=CC(CC(=O)O)C2(C)C1=O (stereo unspecified)

### Response
7.2
-8.8
41.1
-20.8
-0.95

Would you mind listing growth inhibition for each of the following molecules?
1. CN1C(=O)N(c2cc(Cl)cc(Cl)c2)C(=N)C1=S
2. O=[N+]([O-])c1ccc(N(CCO)CCO)cc1
3. CCCCC/C(=N\c1nc[nH]c1C(N)=O)OCC
4. CCN(CC)c1cc(C)c2cc(Cc3ccccc3)ccc2n1
5. COc1ccc(OCc2ccc(OC)c(OC)c2)cc1
6. O=C(O)CCC1=Nc2cccc3cccc(c23)NC1=O
7. COC(=O)C1=CO[C@@H](OC2OC(CO)C(O)C(O)C2O)[C@H]2[C@@H]1C=C[C@@]21C=C([C@H](C)OC(=O)/C=C/c2ccc(OC3OC(CO)C(O)C(O)C3O)cc2)C(=O)O1 (stereo partly specified)
8. OCc1ccc(Cl)c(Cl)c1

### Response
7.1
1.05
-29.9
35.2
7.2
36.2
-18.4
-4.15

Would you mind listing growth inhibition for each of the following molecules?
1. CC(C)(C)OC(=O)/N=C/c1c(O)c2ccccc2oc1=O
2. CC(C)N(C(C)C)S(=O)(=O)c1ccccc1C(O)(c1ccccc1)c1ccccc1

### Response
-36.5
47.5

Each recorded value in this set is attributed to PubChem BioAssay (NCI).
